Cited source for all entries: paper PMC6219857

type: in vitro ADME, rat; conditions: rat liver microsomes + NADPH + UGT, 37 °C, time 0 min
measurementLabel: Concentration of test compound, 0 min (nM)

compound="O=C(/C=C/c1nccn1-c1ccccc1)/C=C/c1nccn1-c1ccccc1 [Compound 17a]" valueunit=nM assayresult=1039.7
compound="CC(C)CCn1ccnc1/C=C/C(=O)/C=C/c1nccn1CCC(C)C [Compound 3]" valueunit=nM assayresult=1017.6
compound="COc1cc(/C=C/C(=O)CC(=O)/C=C/c2ccc(O)c(OC)c2)ccc1O [curcumin, Diferuloylmethane, reference compound]" valueunit=nM assayresult=1135.2
compound="COc1ccccc1-n1ccnc1/C=C/C(=O)/C=C/c1nccn1-c1ccccc1OC [Compound 17d]" valueunit=nM assayresult=1000.6
